# Test system: K562 CRISPRi cells
# experiment: Constant region variant library pooled growth screen, K562
# Assay type: cell-based, human
# settings: sgRNA constant region variants; activity relative to the unmodified constant region cr995
assay readout: Mean relative activity

Below, 5 molecules whose answers are already recorded.
* cr344 (nucleic acid, listed as DNA, chemistry not fully specified) guide: GTTTAAGAGCTAAGCTGGAAACAGCATAGCAAGTTTAAATAAGGCTAGTCCATTATCAACTTGAATAAGTGGCACCGAGTCGGTGCT | 0.2836
* cr046 (nucleic acid, listed as DNA, chemistry not fully specified) guide: GGTTAACAGCTAAGCTGGAAACAGCATAGCAAGTTTAAATAAGGCTAGTCCGTTATCAACTTGAAAAAGTGGCACCGAGTCGGTGCT | 0.2592
* cr246 (nucleic acid, listed as DNA, chemistry not fully specified) guide: GTTTAAGAGCTAAGCTGGAAACAGCATAGCAAGTTTAAAAAAGGCTGGTCCGTTATCAACTTGAAAAAGTGGCACCGAGTCGGTGCT | 0.2779
* cr709 (nucleic acid, listed as DNA, chemistry not fully specified) guide: GTTTAAGAGCTAAGCTGGAAACAGCATAGCAAGTTTAAATAAGGCTAGTCCGTTATTAACTTGAAAAAGTTGCACCGAGTCGGTGCT | 0.3211
* cr586 (nucleic acid, listed as DNA, chemistry not fully specified) guide: GTTTAAGAGCTAAGCTGGAAACAGCATAGCAAGCTTAAATAAGGCTAGTCCGTTATCAACTTGAAAAAGTGGCCCCGAGTCGGGGCT | 0.2939

What the record says about cr696 (nucleic acid, listed as DNA, chemistry not fully specified) guide: GTTTAAGAGCTAAGCTGGAAACAGCATAGCGAGTTTAAATAAGGCTCGTCCGTTATCCACTTGAAAAAGTGGCACCGAGTCGGTGCT : Mean relative activity is 0.2553
